System: COLO 205
Test: NCI tumour cell line growth inhibition, 48 h
Active and inactive are the calls of the source. No stated cut-off is given here; in the data, active = GI50 up to about 1.1 µM and inactive = higher.
reported.property: GI50

Guide cases for GI50, answers given:
smiles.record: CS(=O)(=O)c1ccc2nc(-c3ccc(O)cc3)sc2c1
GI50: 22.2 µM (inactive)
--
smiles.record: COc1cc(-c2cc(O)c3ccccc3n2)cc(OC)c1OC
GI50: > 75 µM (inactive)
--
smiles.record: O=C(CCc1n[nH]c(=S)o1)Nc1ccc(Cl)cc1Cl
GI50: > 100 µM (inactive)

Would you mind giving GI50 for every compound in the list below?
1. C[C@]12CC[C@H](O)CC1=CC[C@@H]1[C@@H]2CC[C@]2(C)C(=N/N)/C(=N\O)C[C@@H]12
2. COc1ccc2oc3c(ccc[n+]3C)c(=O)c2c1

40 µM (inactive)
> 100 µM (inactive)

Value of GI50 reported for the compound O=C(O/N=C1\CCCC\C1=C/c1ccccc1)c1ccc([N+](=O)[O-])cc1 is > 100 µM (inactive)

###

System: OVCAR-5
Assay: NCI tumour cell line growth inhibition, 48 h
Activity calls are given as the source filed them. No stated cut-off is given here; in the data, active = GI50 up to about 1.1 µM and inactive = higher.
Could you please report measured GI50 for the items listed next?

Sample answers from the record:
molecule: O=S(=O)(CC(O)C(Cl)(Cl)Cl)NNc1ccccc1 (stereo not given)
assayed.target: OVCAR-5
GI50: > 100 µM (inactive)
--
molecule: CCCCC1(O)CC2CC1C(C)C2(C)C (stereo not given)
assayed.target: OVCAR-5
GI50: > 100 µM (inactive)
--
molecule: COCCN(CCNC(=O)c1cccc2c(N)c3cccc(C)c3nc12)CCOC
assayed.target: OVCAR-5
GI50: 2.2 µM (inactive)
--
molecule: CC1=NN(c2cccc(Cl)c2)C2(C1=C/C=C/c1ccccc1)C(Cl)C(=O)N2c1nc2ccccc2s1 (stereo not given)
assayed.target: OVCAR-5
GI50: 34.1 µM (inactive)
--
molecule: COc1cc(/C=C/C(=O)OC[C@H](Br)[C@H](OC(C)=O)c2ccc3c(c2)OCO3)cc(OC)c1OC
assayed.target: OVCAR-5
GI50: > 100 µM (inactive)

Would you mind listing GI50 for each of the following molecules?
1. Cc1cn(C2CC(N=[N+]=[N-])C(CO)O2)c(=O)n(CCCCBr)c1=O (stereo not given)
2. CC1(C)OCC(C(O)C2OC(C)(C)OC2/C=N\O)O1 (stereo not given)
3. Cc1nc(Nc2ccccc2Cl)sc1C(=O)CC(=O)C(N)=O
4. COc1cc(C2S/C(=C/c3ccccc3)C(=O)N2c2ccc(Cl)c(Cl)c2)cc(OC)c1OC (stereo not given)
5. O=C1CN2Cc3cc(N4CCOCC4)ccc3N=C2N1

1. > 100 µM (inactive)
2. > 100 µM (inactive)
3. > 100 µM (inactive)
4. 10.1 µM (inactive)
5. 87.3 µM (inactive)

###

System: HL-60
Assay: NCI tumour cell line growth inhibition, 48 h
Calls of active or inactive are those of the source. Rule as the data show it: active = GI50 up to about 1.1 µM and inactive = higher.
reported.property: GI50

smiles.record: Oc1ccc2ccccc2c1C(c1ccc(Cl)cc1)c1c(O)ccc2ccccc12
assayed.target: HL-60
result: 2.34 µM (inactive)
--
smiles.record: O=c1cnn(C/C=C/CP(=O)(O)O)c(=O)[nH]1
assayed.target: HL-60
result: > 100 µM (inactive)

Would you kindly look at the next entry?
Item: CC(C)c1cccc(C(=O)NCCN(C)C)c1[N+](=O)[O-] | GI50: > 100 µM (inactive)
